Below, each entry is listed alongside its reported PfCRT-mediated [3H]CQ transport, trans-stimulation (% PfCRT3D7 control).
target-desc: PfCRT^3D7 (Plasmodium falciparum, UniProt Q8IBZ9)
Sequence (Q8IBZ9 59-398): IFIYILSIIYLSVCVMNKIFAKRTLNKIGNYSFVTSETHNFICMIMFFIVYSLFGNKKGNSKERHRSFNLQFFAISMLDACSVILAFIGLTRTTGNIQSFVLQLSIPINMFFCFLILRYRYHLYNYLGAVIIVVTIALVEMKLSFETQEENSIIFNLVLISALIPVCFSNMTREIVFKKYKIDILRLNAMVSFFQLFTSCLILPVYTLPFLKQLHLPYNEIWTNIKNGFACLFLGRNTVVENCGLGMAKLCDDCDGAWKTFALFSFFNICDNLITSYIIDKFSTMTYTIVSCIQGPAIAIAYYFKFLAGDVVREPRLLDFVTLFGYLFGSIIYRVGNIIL
assay-procedure: cell-based
Assay type: cell-based
measurement-setup: [test solute]i = 45 mM (intracellular; 30 mM for some solutes due to solubility); PfCRT3D7 oocytes; normalised to oocyte type control
Could you give me the number in % PfCRT3D7 control? Just the number is fine.

>>> reported("FSDGLA [FA-6]")
190

Field PfCRT-mediated [3H]CQ transport, trans-stimulation (% PfCRT3D7 control) (system: PfCRT^3D7 (Plasmodium falciparum, UniProt Q8IBZ9)) for entry EFTPPVQ [EQ-7] = 188

Readout PfCRT-mediated [3H]CQ transport, trans-stimulation (% PfCRT3D7 control) for HVDPENF [HF-7] , test system PfCRT^3D7 (Plasmodium falciparum, UniProt Q8IBZ9), was 189

Sourced from paper PMC7413254
